Test system: MDA-MB-435
Assay: Growth inhibition of human MDA-MB-435 cells assessed as cell growth at 10^-5 M after 48 hrs by sulforhodamine B assay
Assay type: functional
Settings: MDA-MB-435, 48 h, read-out: Activity
This listing pairs molecules with measured growth at 10 µM.
Readout kind: growth at 10 µM

O=C1/C(=C/c2c(Cl)cccc2Cl)CN(S(=O)(=O)c2ccccc2)C/C1=C\c1c(Cl)cccc1Cl: 72.7%
Cc1ccc(S(=O)(=O)N2C/C(=C\c3cc(F)cc(F)c3)C(=O)/C(=C/c3cc(F)cc(F)c3)C2)cc1: -76.6%
O=C1/C(=C/c2ccc(Cl)cc2Cl)CN(S(=O)(=O)c2ccccc2)C/C1=C\c1ccc(Cl)cc1Cl: -48%
Cc1ccc(S(=O)(=O)N2C/C(=C\c3c(Cl)cccc3Cl)C(=O)/C(=C/c3c(Cl)cccc3Cl)C2)cc1: 93.5%

* * *

System: SW-620
Assay: Growth inhibition of human SW620 cells assessed as cell growth at 10^-5 M after 48 hrs by sulforhodamine B assay
Format: functional
Details: SW-620, 48 h, read-out: Activity
Readout kind: growth at 10 µM (%)

O=C1/C(=C/c2c(Cl)cccc2Cl)CN(S(=O)(=O)c2ccccc2)C/C1=C\c1c(Cl)cccc1Cl: 89.4
Cc1ccc(S(=O)(=O)N2C/C(=C\c3c(Cl)cccc3Cl)C(=O)/C(=C/c3c(Cl)cccc3Cl)C2)cc1: 101
Cc1ccc(S(=O)(=O)N2C/C(=C\c3cc(F)cc(F)c3)C(=O)/C(=C/c3cc(F)cc(F)c3)C2)cc1: -79
O=C1/C(=C/c2ccc(Cl)cc2Cl)CN(S(=O)(=O)c2ccccc2)C/C1=C\c1ccc(Cl)cc1Cl: -15.2

* * *

Test system: A498
Test: Growth inhibition of human A498 cells assessed as cell growth at 10^-5 M after 48 hrs by sulforhodamine B assay
Type: functional
Details: A498, 48 h, read-out: Activity
Readout kind: growth at 10 µM (%)

Cc1ccc(S(=O)(=O)N2C/C(=C\c3c(Cl)cccc3Cl)C(=O)/C(=C/c3c(Cl)cccc3Cl)C2)cc1: 109
O=C1/C(=C/c2c(Cl)cccc2Cl)CN(S(=O)(=O)c2ccccc2)C/C1=C\c1c(Cl)cccc1Cl: 91.6
O=C1/C(=C/c2ccc(Cl)cc2Cl)CN(S(=O)(=O)c2ccccc2)C/C1=C\c1ccc(Cl)cc1Cl: -27
Cc1ccc(S(=O)(=O)N2C/C(=C\c3cc(F)cc(F)c3)C(=O)/C(=C/c3cc(F)cc(F)c3)C2)cc1: -59

* * *

Tested on: HCT-116
Assay: Growth inhibition of human HCT116 cells assessed as cell growth at 10^-5 M after 48 hrs by sulforhodamine B assay
Type: functional
Settings: HCT-116, 48 h, read-out: Activity
Readout kind: growth at 10 µM (%)

Cc1ccc(S(=O)(=O)N2C/C(=C\c3c(Cl)cccc3Cl)C(=O)/C(=C/c3c(Cl)cccc3Cl)C2)cc1: 74.2
O=C1/C(=C/c2c(Cl)cccc2Cl)CN(S(=O)(=O)c2ccccc2)C/C1=C\c1c(Cl)cccc1Cl: 61.7
O=C1/C(=C/c2ccc(Cl)cc2Cl)CN(S(=O)(=O)c2ccccc2)C/C1=C\c1ccc(Cl)cc1Cl: -84
Cc1ccc(S(=O)(=O)N2C/C(=C\c3cc(F)cc(F)c3)C(=O)/C(=C/c3cc(F)cc(F)c3)C2)cc1: -94
